Biological target: γ-TTP (α-tocopherol transfer protein A156L) (Homo sapiens, UniProt P49638, A156L)
Sequence (P49638 48-278 A156L): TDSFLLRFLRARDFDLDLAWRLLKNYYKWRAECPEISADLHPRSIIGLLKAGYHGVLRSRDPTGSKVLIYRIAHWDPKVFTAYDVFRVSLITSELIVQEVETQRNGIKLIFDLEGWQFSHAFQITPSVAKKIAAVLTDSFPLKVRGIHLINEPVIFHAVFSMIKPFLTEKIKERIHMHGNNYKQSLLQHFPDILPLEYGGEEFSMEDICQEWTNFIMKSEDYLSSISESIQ
Test: X-ray crystal structure
pKd: −log10 of the molar value.
measurement.label: pKd

Cc1c(O)cc2c(c1C)O[C@](C)(CCC[C@H](C)CCC[C@H](C)CCCC(C)C)CC2 [RRR-γ-tocopherol] | 7.27

Cited source: paper PMC7677715
